- Target under test: Biotin QP004.3 (biotin-PDL1-FC) (human) (UniProt Q9NZQ7)
- Sequence (Q9NZQ7 19-238 limits assumed): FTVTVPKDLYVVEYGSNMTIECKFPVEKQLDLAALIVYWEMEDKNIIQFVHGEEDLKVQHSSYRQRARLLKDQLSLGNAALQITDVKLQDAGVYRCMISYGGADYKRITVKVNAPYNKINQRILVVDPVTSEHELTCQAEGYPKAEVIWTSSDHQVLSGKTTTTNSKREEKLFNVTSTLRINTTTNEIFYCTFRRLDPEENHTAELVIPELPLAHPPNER
- Procedure summary: blocking ELISA, PD1-FC coated, biotin-PDL1-FC plus antibody; competitor PD1-FC
Endpoint name: ELISA reading at 0.1372 nM antibody

Binder	ELISA reading at 0.1372 nM antibody
QP320 (Fc fusion, not shown: a dimerising Fc or GST) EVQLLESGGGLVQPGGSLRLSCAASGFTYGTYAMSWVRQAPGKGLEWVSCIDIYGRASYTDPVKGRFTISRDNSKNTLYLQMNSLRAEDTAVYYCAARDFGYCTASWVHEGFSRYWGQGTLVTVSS	1.3
QP325 (Fc fusion, not shown: a dimerising Fc or GST) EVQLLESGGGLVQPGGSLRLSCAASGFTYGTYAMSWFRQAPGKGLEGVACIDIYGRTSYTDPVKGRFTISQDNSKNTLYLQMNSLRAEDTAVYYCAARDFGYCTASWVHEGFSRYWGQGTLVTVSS	1.02
QP324 (Fc fusion, not shown: a dimerising Fc or GST) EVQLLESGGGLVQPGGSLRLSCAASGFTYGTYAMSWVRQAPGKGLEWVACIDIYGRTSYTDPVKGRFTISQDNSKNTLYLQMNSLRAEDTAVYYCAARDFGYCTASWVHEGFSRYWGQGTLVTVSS	1.06
QP1166 (Fc fusion, not shown: a dimerising Fc or GST) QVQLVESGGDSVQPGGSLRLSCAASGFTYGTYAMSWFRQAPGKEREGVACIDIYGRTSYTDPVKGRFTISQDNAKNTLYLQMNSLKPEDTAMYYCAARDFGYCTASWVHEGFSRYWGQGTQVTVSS	1.24
